Hey, just so you know, these numbers are from PubChem BioAssay AID1159580.

test: chemical genetic growth profiling, strain panel (AID 1159580);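 further: tested at 20 µM; growth read once vehicle control cultures reached saturation at 30 °C; 1 = growth at the plate median or of vehicle wells; lower values mean less growth of the strain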; conditions: S. cerevisiae deletion strains, growth OD, locus YML032C, strain rad52, active compounds read low
Hit rate of the full screen: of about 5,500 compounds, about 2,000 (36%) were called active. Inconclusive results (about 18%) are left out. The list shows a part of the results.
READOUT KIND: normalized growth
Form field (numeric): enter value without unit.

Item: CCS(=O)CCSP(=O)(OC)OC (stereo not given) | normalized growth: 1.01

---
Short answer for S=c1nc[nH]c2nc[nH]c12 : normalized growth was 1

normalized growth reading for C[C@H]1OC(n2cc(F)c(=O)[nH]c2=O)C(O)[C@@H]1O (stereo not given in full) : 0.951

Record COc1cc2c(cc1OC)C1C(=O)c3ccc4c(c3OC1CO2)CCC(C)(C)O4 (stereo not given) . Reported normalized growth: 1.02

The reported normalized growth of the compound COc1cc2c(cc1OC)[C@@H]1C(=O)c3ccc(OC)c(CC=C(C)C)c3O[C@@H]1CO2 was 1
